Provenance of the data: patent US9187490B2

# Experimental Details: Half life after single intravenous dose in rat
# Measurement Parameters: in vivo, single IV dose 1 mg/kg, FIG. 2, read-out: terminal elimination half life (converted)
Parameter Measured: half-life

[
  {
    "Compound": "CC(N)C(=O)NC(C(=O)N1CCCC1Cc1c(-c2ccc(-c3oc4ccccc4c3CC3CCCN3C(=O)C(NC(=O)C(C)N)C(C)C)cc2)oc2ccccc12)C(C)C (single isomer, unassigned)",
    "Observed Result": "~6 h"
  },
  {
    "Compound": "CN[C@@H](C)C(=O)N[C@H](C(=O)N1CCC[C@H]1Cc1cn(CCOCCn2cc(C[C@@H]3CCCN3C(=O)[C@@H](NC(=O)[C@H](C)NC)C3CCCCC3)c3ccccc32)c2ccccc12)C1CCCCC1",
    "Observed Result": "≤ 6 h"
  },
  {
    "Compound": "CN[C@@H](C)C(=O)N[C@H](C(=O)N1CCC[C@H]1Cc1cn(CCOCCn2cc(C[C@@H]3CCCN3C(=O)[C@@H](NC(=O)[C@H](C)NC)C3CCCCC3)c3ccc(F)cc32)c2cc(F)ccc12)C1CCCCC1",
    "Observed Result": "≤ 6 h"
  }
]

###

# Assayed System: XIAP-BIR3 (Homo sapiens, UniProt P98170)
# Construct: 40 nM of XIAP-BIR3 for 15 min at RT
# Sequence (P98170 241-356 limits assumed): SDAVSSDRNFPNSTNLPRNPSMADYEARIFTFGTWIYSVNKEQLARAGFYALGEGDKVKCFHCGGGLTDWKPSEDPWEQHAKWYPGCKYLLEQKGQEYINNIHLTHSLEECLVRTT
# Experimental Details: XIAP BIR-3 fluorescence polarization binding assay
# Measurement Parameters: Example 9 series; read-out: KD Range
# Protocol: Following incubation, the polarization values (mP) were measured on a Victor^2V using a 485 nm excitation filter and a 520 nm emission filter. IC50 values were determined from the plot using nonlinear least-squares analysis using GraphPad Prism.
pKd: −log10 of the molar value.
Parameter Measured: pKd

[
  {
    "Smiles String": "CN[C@@H](C)C(=O)N[C@H](C(=O)N1CCC[C@H]1Cc1cn(CCOCCn2cc(C[C@@H]3CCCN3C(=O)[C@@H](NC(=O)[C@H](C)NC)C3CCCCC3)c3ccccc32)c2ccccc12)C1CCCCC1",
    "Observed Result": "> 7.00"
  },
  {
    "Smiles String": "CN[C@@H](C)C(=O)N[C@H](C(=O)N1CCC[C@H]1Cc1c(C)n(CCOCCn2c(C)c(C[C@@H]3CCCN3C(=O)[C@@H](NC(=O)[C@H](C)NC)C3CCCCC3)c3cc(F)ccc32)c2ccc(F)cc12)C1CCCCC1",
    "Observed Result": "> 7.00"
  }
]

###

Entries and their measured pKd follow.
# Assayed System: XIAP-BIR3 (Homo sapiens, UniProt P98170)
# Construct: 40 nM of XIAP-BIR3 for 15 min at RT
# Experimental Details: XIAP BIR-3 fluorescence polarization binding assay
# Measurement Parameters: 5 nM AbuRPF-K(5-Fam)-NH2, 40 nM XIAP-BIR3, 15 min RT, pH 7.5; read-out: KD Range
# Method: Following incubation, the polarization values (mP) were measured on a Victor^2V using a 485 nm excitation filter and a 520 nm emission filter. IC50 values were determined from the plot using nonlinear least-squares analysis using GraphPad Prism.
pKd: −log10 of the molar value.

[
  {
    "Compound": "CN[C@@H](C)C(=O)N[C@H](C(=O)N1CCC[C@H]1Cc1c(-c2ccc(-c3c(C[C@@H]4CCCN4C(=O)[C@@H](NC(=O)[C@H](C)NC)C(C)C)c4ccc(F)cc4n3CCO)cc2)[nH]c2cc(F)ccc12)C(C)C [Entry 67]",
    "pKd": "> 7.00"
  },
  {
    "Compound": "CN[C@@H](C)C(=O)N[C@H](C(=O)N1C[C@H](O)C[C@H]1Cc1c(-c2ccc(-c3[nH]c4ccccc4c3C[C@@H]3C[C@@H](O)CN3C(=O)[C@@H](NC(=O)[C@H](C)NC)C(C)C)cc2)[nH]c2ccccc12)C(C)C [Entry 21]",
    "pKd": "6.00 to 7.00"
  },
  {
    "Compound": "CN[C@@H](C)C(=O)N[C@H](C(=O)N1CCC[C@H]1Cc1cn(CC#CC#CCn2cc(C[C@@H]3CCCN3C(=O)[C@@H](NC(=O)[C@H](C)NC)C(C)C)c3ccccc32)c2ccccc12)C(C)C [Entry 121]",
    "pKd": "> 7.00"
  },
  {
    "Compound": "CN[C@@H](C)C(=O)N[C@H](C(=O)N1CCC[C@H]1Cc1c(-c2ccc(-c3[nH]c4cc(F)ccc4c3C[C@@H]3CCCN3C(=O)[C@@H](NC(=O)[C@H](C)NC)C3CCCCC3)cc2)[nH]c2cc(F)ccc12)C1CCCCC1 [Entry 38]",
    "pKd": "> 7.00"
  }
]
